- experiment notes: Plasma stability, human plasma
- condition: human, human Li-heparin plasma
Bridge positions count the residues as written; N and C are the ends. Peptide text beside a SMILES is read from it.

compound	display unit	remaining at 1 h, 10 µM
CC(=O)N1CCC[C@H]1C(=O)N[C@@H](CO)C(=O)N[C@@H](CCCNC(=N)N)C(=O)N[C@@H](CC(C)C)C(=O)N[C@@H](CCC(=O)O)C(=O)N[C@H]1CCCCNC(=O)CC[C@@H](C(=O)N[C@@H](CCCNC(=N)N)C(=O)N[C@@H](CC(C)C)C(=O)N[C@H](C(=O)N[C@@H](CCC(=O)O)C(N)=O)[C@@H](C)O)NC(=O)[C@H](CCCNC(=N)N)NC(=O)[C@H](CC(C)C)NC(=O)[C@H](CCC(=O)O)NC1=O [SD15805] (Ac-PSRLEKELRERLTE-NH2; lactam 6-10)	%	88.4
